# Test system: PC-3
# PROCEDURE TEXT: Antiproliferative activity against human PC3 cells measured after 48 hrs by MTT assay
# Type: functional, cell-based
# CONDITION SET: PC-3, 48 h
pIC50: −log10 of the molar value.
MEASURED QUANTITY: pIC50

CO[C@H]1C[C@H](O[C@H]2CC[C@@]3(C)[C@@H](CC[C@H]4C5=CC(=O)[C@@H]6[C@@H](C)OC(=O)[C@]56CC[C@@H]43)C2)O[C@H](C)[C@H]1O[C@H]1C[C@@H](OC)[C@H](O)[C@@H](C)O1: < 4.30

Prompt: Give pIC50 for the following compound: CO[C@H]1C[C@@H](O[C@H]2[C@@H](O)C[C@H](O[C@H]3CC[C@@]4(C)[C@@H](CC[C@H]5C6=CC(=O)[C@@H]7[C@@H](C)OC(=O)[C@]67CC[C@@H]54)C3)O[C@@H]2C)O[C@H](C)[C@H]1O
Completion: < 4.30

Prompt: Give pIC50 for the following compound: C[C@H]1O[C@@H](O[C@H]2CC[C@@]3(C)[C@@H](CC[C@H]4C5=CC(=O)[C@@H]6[C@@H](C)OC(=O)[C@]56CC[C@@H]43)C2)C[C@H](O)[C@@H]1O
Completion: < 4.30

Prompt: Give pIC50 for the following compound: CO[C@H]1C[C@H](O[C@H]2CC[C@@]3(C)[C@@H](CC[C@H]4C5=CC(=O)[C@@H]6[C@@H](C)OC(=O)[C@]56CC[C@@H]43)C2)O[C@H](C)[C@H]1O
Completion: < 4.30

---

# Test system: PC-3
# PROCEDURE TEXT: Antiproliferative activity against human PC3 cells measured after 48 hrs by MTT assay
# Type: functional, cell-based
# CONDITION SET: PC-3, 48 h
pIC50: −log10 of the molar value.
MEASURED QUANTITY: pIC50

// known answers, use as guide
C[C@H]1OC(=O)[C@]23CC[C@@H]4[C@@]5(C)CC[C@H](O)CC5=CC[C@@]4(O)[C@@]2(O)CC[C@H]13: < 4.30
COc1cccc2c1C(=O)c1c(O)c3c(c(O)c1C2=O)C[C@@](O)(C(=O)CO)C[C@@H]3O[C@H]1C[C@H](N)[C@H](O)[C@H](C)O1 [DOXORUBICIN]: 6.10 to 6.30
CO[C@H]1C[C@@H](O[C@@H]2[C@H](O)C[C@H](O[C@H]3CC[C@@]4(C)C(=CC[C@H]5C6=CC(=O)[C@@H]7[C@@H](C)OC(=O)[C@]67CC[C@@H]54)C3)O[C@@H]2C)O[C@H](C)[C@H]1O: < 4.30

Prompt: Give pIC50 for the following compound: C[C@H]1O[C@@H](O[C@H]2CC[C@@]3(C)C(=CC[C@H]4C5=CC(=O)[C@@H]6[C@@H](C)OC(=O)[C@]56CC[C@@H]43)C2)C[C@H](O)[C@@H]1O
Completion: < 4.30

---

# System: PC-3
# PROCEDURE TEXT: Antiproliferative activity against human PC3 cells measured after 48 hrs by MTT assay
# Assay type: functional, cell-based
# CONDITION SET: PC-3, 48 h
IC50 reference

// known answers, use as guide
CO[C@H]1C[C@H](O[C@H]2CC[C@@]3(C)C(=CC[C@H]4C5=CC(=O)[C@@H]6[C@@H](C)OC(=O)[C@]56CC[C@@H]43)C2)O[C@H](C)[C@H]1O[C@@H]1C[C@@H](OC)[C@H](O)[C@@H](C)O1: 3.6 µM
C[C@H]1OC(=O)[C@]23CC[C@H]4[C@@H](C(C=O)=C5C[C@@H](O)CC[C@@]54C)[C@@]2(O)CC[C@H]13: > 50 µM
CO[C@H]1C[C@H](O[C@H]2CC[C@@]3(C)C(=C(C=O)[C@@H]4[C@@H]3CC[C@]35C(=O)O[C@H](C)[C@H]3CC[C@]45O)C2)O[C@H](C)[C@H]1O: > 50 µM
C[C@H]1OC(=O)[C@]23CC[C@H]4[C@@H](CC[C@H]5C[C@@H](O)CC[C@@]54C)[C@@]2(O)CC[C@H]13: > 50 µM

Prompt: Give IC50 for the following molecule: CO[C@H]1C[C@H](O[C@H]2CC[C@@]3(C)C(=CC[C@@H]4[C@@H]3CC[C@]35C(=O)O[C@H](C)[C@H]3CC[C@]45O)C2)O[C@H](C)[C@H]1O[C@@H]1C[C@H](OC)[C@H](O[C@@H]2C[C@@H](OC)[C@H](O)[C@@H](C)O2)[C@@H](C)O1
Completion: > 50 µM
